target: Nuclear receptor ROR-gamma (Mus musculus) (UniProt P51450); assay: qHTS for inhibitors of ROR gamma transcriptional activity; settings: Drosophila S2 Gal4-RORgamma UAS-luciferase reporter, 20 h; series mostly up to 53.6 µM; note: nearly all actives have a fitted effect of over 60% in size; note: potency is the fitted concentration of half-maximal effect
Sequence (P51450 whole entry, looked up, the tested form may be a part): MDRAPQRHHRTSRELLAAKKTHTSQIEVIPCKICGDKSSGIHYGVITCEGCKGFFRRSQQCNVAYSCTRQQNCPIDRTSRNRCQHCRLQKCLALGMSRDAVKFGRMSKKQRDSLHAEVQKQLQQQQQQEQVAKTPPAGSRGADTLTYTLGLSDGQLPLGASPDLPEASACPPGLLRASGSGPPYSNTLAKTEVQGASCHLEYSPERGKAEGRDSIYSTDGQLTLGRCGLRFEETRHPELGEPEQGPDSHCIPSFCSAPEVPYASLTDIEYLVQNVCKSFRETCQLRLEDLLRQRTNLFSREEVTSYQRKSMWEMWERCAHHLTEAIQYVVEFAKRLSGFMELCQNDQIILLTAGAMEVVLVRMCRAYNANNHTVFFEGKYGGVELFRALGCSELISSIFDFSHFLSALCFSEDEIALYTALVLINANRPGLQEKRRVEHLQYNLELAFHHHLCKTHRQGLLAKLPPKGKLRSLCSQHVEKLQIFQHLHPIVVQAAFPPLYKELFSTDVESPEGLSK
Hit rate of the full screen: of about 310,000 compounds, about 17,000 (5.5%) were called active. Roughly 11% stayed inconclusive and do not appear here. The entries come from a sample that favours actives as a whole.
EXPERIMENTAL ENDPOINT: Potency

CC(=N\NC(=O)c1cc(Br)ccc1O)/C(=N/O)C(=O)Nc1ccccc1: 7.94 µM (active)
Cc1cc(Oc2ccccc2)nc(N2CCOCC2)n1: inactive
COc1ccc(/C=N/Nc2cc(N3CCOCC3)nc(C)n2)c(OC)c1: inactive
O=C(NCCOc1cccnc1)c1ccc(OC2CCN(Cc3ccccn3)CC2)cc1: inactive

The recorded Potency with Nuclear receptor ROR-gamma (Mus musculus) (UniProt P51450) for CCOC(=O)c1ccc(NC(=S)Nc2cc(C)cc(C)n2)cc1 was 2 µM (active)

The recorded Potency with Nuclear receptor ROR-gamma (Mus musculus) (UniProt P51450) for Cc1cccc(NC(=O)Cc2ccc(Br)cc2)n1 was inactive

The recorded Potency with Nuclear receptor ROR-gamma (Mus musculus) (UniProt P51450) for C=CCN1C(=O)C2(OCCCO2)c2cccc(Cl)c21 was inactive

The recorded Potency with Nuclear receptor ROR-gamma (Mus musculus) (UniProt P51450) for O=c1[nH]nc(CSCc2ccccc2Cl)[nH]1 was inactive

The recorded Potency with Nuclear receptor ROR-gamma (Mus musculus) (UniProt P51450) for O=c1[nH]c(NCCO)nnc1Cc1ccc(Cl)cc1 was inactive

The recorded Potency with Nuclear receptor ROR-gamma (Mus musculus) (UniProt P51450) for Cc1ccc(S(=O)(=O)N2CCN(C(=O)CSc3cc(C)ccc3C)CC2)c(C)c1 was 3.16 µM (active)

The recorded Potency with Nuclear receptor ROR-gamma (Mus musculus) (UniProt P51450) for COc1cc(-c2c(-c3ccc4c(c3)OCO4)noc2C)ccc1F was inactive

====

biological target: Nuclear receptor ROR-gamma (Mus musculus); experiment: qHTS for inhibitors of ROR gamma transcriptional activity; conditions: Drosophila S2 Gal4-RORgamma UAS-luciferase reporter, 20 h; series mostly up to 53.6 µM; note: nearly all actives have a fitted effect of over 60% in size
Among all 310,000 compounds or so, about 17,000 (5.5%) were called active. Another 11% or so got no clear call; they are omitted. Calls follow the shape of the dose curve; as a rule, active = well fitted inhibition curve with a large enough effect; inconclusive = small, poorly fitted or top-dose-only effect, or effect the other way; inactive = no such curve, though single readings can be large or run the other way. For the sample, actives were picked, then their nearest neighbours and some compounds at random.
Thanks in advance; please answer with one of these: active, inactive

# example entries with known answers
O=C(NC(=S)Nc1ccc(S(=O)(=O)Nc2ncccn2)cc1)c1cccc(Br)c1: inactive
CCc1cc(C(N)=O)c(NC(=O)c2ccc(OC)cc2)s1: inactive
OC(COc1ccc(F)cc1Cl)CN1CCc2ccccc2C1 (stereo unspecified): inactive
Cc1ccc(C)c(NC(=S)NNC(=O)c2csc(C)c2)c1: active
Cc1ccc(Sc2cc(C(=O)c3ccccc3C(=O)O)ccc2[N+](=O)[O-])cc1: inactive
O=C(/C=C/NNC(=O)c1cccc(Br)c1)c1ccccc1: inactive
OCCCN1c2ccccc2Nc2nnc(-c3ccccc3)cc21: active
Cc1ccnc2nc(C(=O)OCC(=O)N(CC(C)C)CC(C)C)nn12: inactive

Tell me the assay call for O=C(OCc1ccc(Br)cc1)c1cccc(-c2nnc(-c3ccccc3)o2)c1 please.
inactive

Tell me the assay call for Cc1cccc(NS(=O)(=O)c2ccc(C(=O)NCC(C)(C)N3CCOCC3)cc2)c1C please.
inactive

Tell me the assay call for O=C(NC1CCCC1)C(c1ccc(Cl)cc1)N(C(=O)c1csnn1)C1CC1 (stereo unspecified) please.
inactive

====

molecular target: Nuclear receptor ROR-gamma (Mus musculus) (UniProt P51450); experiment: qHTS for inhibitors of ROR gamma transcriptional activity; details: Drosophila S2 Gal4-RORgamma UAS-luciferase reporter, 20 h; series mostly up to 53.6 µM; note: nearly all actives have a fitted effect of over 60% in size; note: potency is the fitted concentration of half-maximal effect
The campaign covered roughly 310,000 compounds. About 17,000 (5.5%) were called active. Another 11% or so got no clear call; they are omitted. This is one part of a sample in which actives are shown more often than they occur.
EXPERIMENTAL ENDPOINT: Potency

Worked cases, answers included:
CC1CCCN(CC(=O)Nc2cc(Cl)ccc2Oc2ccccc2)C1 (stereo not given): inactive
COc1cccc(NC(=O)CN(C)C(=O)c2ccccc2CCc2ccccc2)c1: inactive
Cc1cc(NC(=O)CN2CCCC(C)C2)n(-c2nc3ccccc3s2)n1 (stereo not given): 1580 nM (active)
Cc1nc(Nc2ccccc2F)c2nnn(Cc3ccccc3Cl)c2n1: inactive

What the record says about CS(=O)(=O)C1=NN2C(=N)/C(=C\c3ccc(OCCOc4ccccc4)cc3)C(=O)N=C2S1 : Potency is inactive

====

target: Nuclear receptor ROR-gamma (Mus musculus) (UniProt P51450); test: qHTS for inhibitors of ROR gamma transcriptional activity; conditions: Drosophila S2 Gal4-RORgamma UAS-luciferase reporter, 20 h; series mostly up to 53.6 µM; note: nearly all actives have a fitted effect of over 60% in size
Among all 310,000 compounds or so, about 17,000 (5.5%) were called active. About 11% were inconclusive and are not listed. Calls come from the whole dose curve; as a rule, active = well fitted inhibition curve with a large enough effect; inconclusive = small, poorly fitted or top-dose-only effect, or effect the other way; inactive = no such curve, though single readings can be large or run the other way. The full list was thinned out, with actives kept by preference.
Thanks in advance; please answer with one of these: label 1 for active, label 0 for inactive

# example entries with known answers
COc1ccc(Cn2c(=S)[nH]c3cc(C(=O)N4CCCCC4)ccc3c2=O)cc1: label 1
COCCn1c(=S)[nH]c2cc(C(=O)NCCc3ccc(OC)c(OC)c3)ccc2c1=O: label 0
CC(=O)c1ccc(N2CCN(S(=O)(=O)c3ccc4c(c3)CC(=O)N4C)CC2)cc1: label 0
O=C(NC1CCCCC1)c1ccc2c(=O)n(CC3CCCO3)c(=O)[nH]c2c1 (stereo not given): label 0
O=C(CN(C(=O)c1csnn1)c1ccc(Br)cc1)NC1CCCC1: label 0

Tell me the assay call for CCN(C(=O)CSc1nnc(-c2ccncc2)o1)c1ccccc1 please.
label 0

Tell me the assay call for NC(=O)C1CCN(C(=O)c2ccc3c(=O)n(Cc4cccc(Br)c4)c(=S)[nH]c3c2)CC1 please.
label 0

Tell me the assay call for COc1ccc(CNc2nc3c(c(=O)[nH]c(=O)n3C)n2Cc2ccccc2)cc1 please.
label 0

Tell me the assay call for Cc1ccc(C(=O)NCC(=O)NCc2cc(=O)n(C)c(=O)n2C)cc1 please.
label 0

Tell me the assay call for COC(=O)c1ccc(COC(=O)c2cnc(Cl)c(Cl)c2)cc1 please.
label 0

====

biological target: Nuclear receptor ROR-gamma (Mus musculus) (UniProt P51450); assay: qHTS for inhibitors of ROR gamma transcriptional activity; conditions: Drosophila S2 Gal4-RORgamma UAS-luciferase reporter, 20 h; series mostly up to 53.6 µM; note: nearly all actives have a fitted effect of over 60% in size
Among all 310,000 compounds or so, about 17,000 (5.5%) were called active. About 11% were inconclusive and are not listed. The call rests on the fitted dose curve; in most records, active means well fitted inhibition curve with a large enough effect; inconclusive means small, poorly fitted or top-dose-only effect, or effect the other way; inactive means no such curve, though single readings can be large or run the other way. The sample as a whole holds a higher share of actives than the screen did.
Thanks in advance; please answer with one of these: active, inactive

C/C(N)=C(/C#N)C(=O)COC(=O)C1=NN(c2ccccc2)C(=O)CC1: inactive
Nc1nnn(CC(=O)N/N=C/c2ccccc2)n1: inactive
S=c1[nH]cc(-c2ccc(Cl)cc2)n1-c1ccccc1: inactive
Nc1nnnn1CC(=O)N/N=C/c1ccc(-c2cccc(Cl)c2)o1: inactive
COc1ccc(-c2cc(=O)c3c(O)cc(O[C@@H]4O[C@H](CO[C@@H]5O[C@@H](C)[C@H](O)[C@@H](O)[C@H]5O)[C@@H](O)[C@H](O)[C@H]4O)cc3o2)cc1O: inactive

Tell me the assay call for O=c1cc(-c2ccc(O)c(O)c2)oc2cccc(O)c12 please.
active

Tell me the assay call for O=C(Cn1nnc(-c2ccccc2)n1)N/N=C/c1ccc(-c2ccc(Cl)cc2)o1 please.
active

Tell me the assay call for O=Cc1cn(Cc2ccccc2)nc1-c1cccnc1 please.
inactive

Tell me the assay call for S=c1[nH]ccn1-c1ccc(Cl)cc1 please.
active

Tell me the assay call for CCOCCCN(C)C1CCN(C(=O)c2oc3ccccc3c2NC(=O)Cc2cccc([N+](=O)[O-])c2)CC1 please.
inactive

====

target: Nuclear receptor ROR-gamma (Mus musculus) (UniProt P51450); test: qHTS for inhibitors of ROR gamma transcriptional activity; conditions: Drosophila S2 Gal4-RORgamma UAS-luciferase reporter, 20 h; series mostly up to 53.6 µM; note: nearly all actives have a fitted effect of over 60% in size
Hit rate of the full screen: of about 310,000 compounds, about 17,000 (5.5%) were called active. Roughly 11% stayed inconclusive and do not appear here. Calls follow the shape of the dose curve; as a rule, active = well fitted inhibition curve with a large enough effect; inconclusive = small, poorly fitted or top-dose-only effect, or effect the other way; inactive = no such curve, though single readings can be large or run the other way. Many of the other results were omitted from the sample, so actives are more common in it than they were.
Thanks in advance; please answer with one of these: active, inactive

# example entries with known answers
CCOC(=O)N1CCN(C(=O)c2cn(C)c3ccc(S(=O)(=O)N4CCCC4)cc3c2=O)CC1: inactive
Cc1cc(-c2cccs2)nc(-n2cccc2)n1: inactive
Cc1nn(Cc2ccc(C(=O)N3N=C(C(F)F)CC3(O)C(F)F)cc2)c(C)c1[N+](=O)[O-] (stereo unspecified): active
CC(C)(C)Nc1c(-c2cccs2)nc2ccccn12: active
Cc1ccc2[nH]c(=O)c(CN(C)S(=O)(=O)c3cccc4nonc34)cc2c1: inactive
CCOc1ccccc1N1CN(Cc2ccccc2)CNC1=S: active
CCOC(=O)c1sc(=NC(=O)c2ccc(Br)cc2)n(C)c1C: inactive
O=c1[nH]c2ccc(S(=O)(=O)N3CCCC3)cc2[nH]1: inactive
Cc1c(C)c2ccc(OCC(=O)N3CCN(c4cccc(Cl)c4)CC3)cc2oc1=O: inactive
CCOC(=O)N1CCN(C(=O)C(C)NC(=O)c2ccco2)CC1 (stereo unspecified): inactive

Shifting focus to the compound that follows.
Tell me the assay call for CCOc1ccc(OCc2ccc(C(=O)N(C)c3ccccc3)o2)cc1 please.
inactive
